Read-out: urokinase plasminogen activator (uPA), PLAU (gene 5328)
assayText: BSK_KF3CT_uPA: BioMAP Diversity Plus: KF3CT Assay for urokinase plasminogen activator (uPA) Biomarker Activity (AID 2283075)
conditionInfo: primary human keratinocytes with fibroblasts; actives raise or lower the signal
Experimental: BSK_KF3CT is a cell-based, multiplexed-readout assay that uses keratinocytes and foreskin fibroblasts, a human skin primary cell co-culture, with measurements taken at 24 hours after chemical dosing in a 96-well plate.BSK_KF3CTA is an assay component measured in the BSK_KF3CT assay. It measures uPA antibody related to regulation of gene expression using ELISA technology.Data from the assay component BSK_KF3CTA was analyzed into 1 assay endpoint. […]
Calls of active or inactive are those of the source. Rule for the calls: active = hit-call score of the fitted dose curve at least 0.9, where 1 is the maximum; inactive = score below 0.9.
Outcome codes: active, inactive

> print(dat)
                                    molecule  classname
 1                  COc1c(Cl)ccc(Cl)c1C(=O)O   inactive
 2      Oc1ccc(C(c2ccc(O)cc2)C(Cl)(Cl)Cl)cc1     active
 3              CCCOC(=O)c1ccc(C(=O)OCCC)nc1   inactive
 4  CC(C)(C)[C@@H](O)[C@@H](Cc1ccc(Cl)cc1)n1cncn1   inactive
 5                c1ccc2[nH]c(-c3cscn3)nc2c1   inactive
 6  COC(=O)CSc1cc(N=c2sc(=O)n3n2CCCC3)c(F)cc1Cl   inactive
 7                                     COCCO   inactive
 8             S=C([S-])NCCNC(=S)[S-].[Mn+2]   inactive
 9  CCC(O)=C1C(=O)CC(C(=O)O)CC1=O (stereo not given)   inactive
10                       CCOC(=O)c1ccc(O)cc1   inactive

All figures here come from PubChem BioAssay (EPA / NIEHS).
